Reference for the values: patent US6673791B2

test system: K103N/Y181C (HIV-1 double mutant strain); experiment: EC50 assay, K103N/Y181C strain; assay type: cell-based; details: Human immunodeficiency virus 1, read-out: EC50 K103N/Y181C (nM), K103N/Y181C double mutant
# EC50 listing for each entry below

CCN1c2ncc(CCOc3ccc(C(=O)O)c4c3CCCC4)cc2C(=O)N(C)c2ccc(OC)nc21 ... < 100 nM

Query block: Given the entry CCN1c2ncc(CCOc3ccc(CC(C)C(=O)O)c4ccccc34)cc2C(=O)N(C)c2ccc(Cl)nc21 (stereo not shown) , what EC50 was observed with K103N/Y181C (HIV-1 double mutant strain)?
Result block: < 100 nM

Query block: Query for K103N/Y181C (HIV-1 double mutant strain): what EC50 does the record show for CCN1c2ncc(CCOc3ccc(CC(=O)O)c4ccccc34)cc2C(=O)N(C)c2ccc(Cl)nc21 ?
Result block: < 100 nM

* * *

molecular target: WT RT (HIV-1 RT) (Human immunodeficiency virus type 1 group M subtype B, UniProt P03366); construct: mutations that occur in the reverse transcriptase segment of the pol gene; assay: biochemical
pIC50: −log10 of the molar value.
Measurement Name: pIC50

Solved cases (5 shown):
CCN1c2ncc(CCOc3ccc(CC(=O)O)c4c3CCCC4)cc2C(=O)N(C)c2ccc(F)nc21 ... > 7.00
CCN1c2ncc(CCOc3ccc(C(=O)O)c4c3CCCC4)cc2C(=O)N(C)c2ccc(Cl)nc21 ... > 7.00
CCN1c2ncc(CCOc3ccc(CCC(=O)O)c4ccccc34)cc2C(=O)Nc2c(C)ccnc21 ... > 7.00
CCN1c2ncc(CCOc3ccc(CC(C)C(=O)O)c4ccccc34)cc2C(=O)Nc2c(C)ccnc21 (centres unmarked) ... > 7.00
CCN1c2ncc(CCOc3ccc(/C=C/C(=O)O)c4ccccc34)cc2C(=O)N(C)c2cccnc21 ... > 7.00

Query block: Recorded pIC50 of CCN1c2ncc(CCOc3ccc(CC(=O)O)c4c3CCCC4)cc2C(=O)N(C)c2ccc(Cl)nc21 , please.
Result block: > 7.00

Query block: Suppose we examine the compound CCN1c2ncc(CCOc3ccc4cc(C(=O)O)ccc4c3)cc2C(=O)N(C)c2cccnc21 ; what pIC50 value has been reported?
Result block: > 7.00

Query block: Requested field: pIC50. Item: CCN1c2ncc(CCOc3ccc(CCC(=O)O)c4c3CCCC4)cc2C(=O)N(C)c2ccc(Cl)nc21
Result block: > 7.00

* * *

system: K103N/Y181C (HIV-1 double mutant strain); assay: EC50 assay, K103N/Y181C strain; format: cell-based; details: Human immunodeficiency virus 1, read-out: EC50 K103N/Y181C (nM), K103N/Y181C double mutant
Measurement Name: EC50

A selection of reference data follows.
CCN1c2ncc(CCOc3ccc(CC(=O)O)c4ccccc34)cc2C(=O)Nc2c(C)cc(Cl)nc21 ... 100 to 1000 nM
CCN1c2ncc(CCOc3ccc(/C=C(\C)C(=O)O)c4ccccc34)cc2C(=O)N(C)c2ccc(F)nc21 ... < 100 nM
CCN1c2ncc(CCOc3ccc(C(=O)O)c4ccccc34)cc2C(=O)N(C)c2cccnc21 ... < 100 nM
CCN1c2ncc(CCOc3ccc(CCC(=O)O)c4ccccc34)cc2C(=O)N(C)c2cccnc21 ... < 100 nM

Query block: Field request: EC50 | item: CCN1c2ncc(CCOc3cccc4c(S(=O)(=O)NCC(=O)O)cccc34)cc2C(=O)N(C)c2cccnc21
Result block: 100 to 1000 nM

Query block: Reported EC50, compound CCN1c2ncc(CCOc3ccc(C(=O)O)c4ccccc34)cc2C(=O)N(C)c2ccc(Cl)nc21 : ____
Result block: < 100 nM

Query block: Which EC50 value belongs to CCN1c2ncc(CCOc3ccc(C(C)CC(=O)O)c4ccccc34)cc2C(=O)N(C)c2cccnc21 (stereo not shown) ?
Result block: < 100 nM

* * *

Recorded IC50 by entry
molecular target: V106A mutant RT (HIV-1 RT) (Human immunodeficiency virus type 1 group M subtype B, UniProt P03366, V705A); construct: mutations that occur in the reverse transcriptase segment of the pol gene; assay: biochemical; conditions: IC50 V106A (nM)

Known results for molecules:
CCN1c2ncc(CCOc3ccc(/C=C/C(=O)O)c4ccccc34)cc2C(=O)N(C)c2ccc(Cl)nc21 [Entry 1029] ... 100 to 1000 nM
CCN1c2ncc(CCOc3ccc(/C=C(\C)C(=O)O)c4ccccc34)cc2C(=O)N(C)c2ccc(C)nc21 [Entry 1038] ... > 1000 nM
CCN1c2ncc(CCOc3ccc(CCC(=O)O)c4c3CCCC4)cc2C(=O)N(C)c2ccc(Cl)nc21 [Entry 5010] ... > 1000 nM
CCN1c2ncc(CCOc3ccc(C(=O)O)c4ccccc34)cc2C(=O)N(C)c2ccc(F)nc21 [Entry 1006] ... > 1000 nM
CCNC(=O)N1CCc2c(OCCc3cnc4c(c3)C(=O)N(C)c3cccnc3N4CC)ccc(C(=O)O)c2C1 [Entry 7006] ... 100 to 1000 nM
CCN1c2ncc(CCOc3ccc(CC(=O)NN)c4ccccc34)cc2C(=O)N(C)c2ccc(Cl)nc21 [Entry 1016] ... 100 to 1000 nM

Query block: Look up IC50 for this molecule: CCN1c2ncc(CCOc3ccc(C(=O)O)c4c3CCCC4)cc2C(=O)N(C)c2ccc(C)nc21 [Entry 5004]
Result block: > 1000 nM

Query block: I am curious: what IC50 value has been reported for CCN1c2ncc(CCOc3ccc(CC(C)C(=O)O)c4ccccc34)cc2C(=O)Nc2c(C)ccnc21 (stereo not drawn) [Entry 1046] ?
Result block: > 1000 nM

Query block: Consider the molecule CCN1c2ncc(CCOc3ccc(/C=C(\C)C(=O)O)c4ccccc34)cc2C(=O)Nc2c(C)ccnc21 [Entry 1039] and give its measured IC50.
Result block: 100 to 1000 nM

Query block: Please give the measured IC50 for this molecule: CCN1c2ncc(CCOc3ccc(/C=C(\C)C(=O)O)c4ccccc34)cc2C(=O)Nc2c(C)cc(Cl)nc21 [Entry 1040]
Result block: 100 to 1000 nM

Query block: Tell me the measured IC50 of CCN1c2ncc(CCOc3ccc(CC(=O)O)c4ccccc34)cc2C(=O)Nc2c(C)cc(F)nc21 [Entry 1014] , please.
Result block: 100 to 1000 nM

Query block: Param item = CCN1c2ncc(CCOc3ccc(/C=C/C(=O)O)c4ccccc34)cc2C(=O)Nc2c(C)cc(F)nc21 [Entry 1034] ; retrieve measured IC50.
Result block: < 100 nM

* * *

Molecular target: WT RT (HIV-1 RT) (Human immunodeficiency virus type 1 group M subtype B, UniProt P03366)
Construct: mutations that occur in the reverse transcriptase segment of the pol gene
Assay: biochemical
Description: Based upon testing of these compounds, as described below, it is known that they inhibit the RNA-dependent DNA polymerase activity of HIV-1 RT. […] Utilising the Reverse Transcriptase (RT) Assay described below, compounds can be tested for their ability to inhibit the RNA-dependent DNA polymerase activity of HIV-1 RT. Certain specific compounds described in the Examples which appear below, were so tested. The results of this testing appear in Table 4 as IC50 (nM) and Table 5 as EC50 (nM). […]
Let's look at some molecules and their measured IC50.

CCN1c2ncc(CCOc3ccc(CC(=O)NN)c4ccccc34)cc2C(=O)N(C)c2cccnc21 ... < 100 nM

Query block: Any idea what IC50 was measured for CCN1c2ncc(CCOc3ccc(NS(=O)(=O)C(F)(F)F)c4ccccc34)cc2C(=O)N(C)c2ccc(F)nc21 ?
Result block: < 100 nM

Query block: Please look up its IC50: CCN1c2ncc(CCOc3ccc(CC(=O)O)c4ccccc34)cc2C(=O)Nc2c(C)cc(Cl)nc21
Result block: < 100 nM

Query block: # get_value(readout='IC50', item= CCN1c2ncc(CCOc3ccc(C(C)CC(=O)O)c4ccccc34)cc2C(=O)N(C)c2cccnc21 (stereo not shown) )
Result block: < 100 nM

* * *

biological target: K103N/Y181C double mutant RT (HIV-1 RT) (Human immunodeficiency virus type 1 group M subtype B, UniProt P03366, K702N/Y780C); construct: mutations that occur in the reverse transcriptase segment of the pol gene; test: biochemical
Below, each entry is listed with its recorded IC50.

Query block: Fill blank: measured IC50 of the compound CCN1c2ncc(CCOc3cccc4c(S(N)(=O)=O)cccc34)cc2C(=O)N(C)c2cccnc21 [Entry 2004] is ____.
Result block: < 100 nM

Query block: Bench note: what IC50 did CCN1c2ncc(CCOc3ccc(CC(=O)O)c4ccccc34)cc2C(=O)N(C)c2ccc(C)nc21 [Entry 1011] show?
Result block: 100 to 1000 nM

* * *

target: K103N/Y181C double mutant RT (HIV-1 RT) (Human immunodeficiency virus type 1 group M subtype B, UniProt P03366, K702N/Y780C); construct: mutations that occur in the reverse transcriptase segment of the pol gene; experiment: biochemical
pIC50: −log10 of the molar value.
Catalogue of pIC50 readings, one per entry.

CCN1c2ncc(CCOc3cccc4c(S(=O)(=O)NCC(=O)O)cccc34)cc2C(=O)N(C)c2cccnc21 ... > 7.00
CCN1c2ncc(CCOc3ccc4cc(CC(=O)NN)ccc4c3)cc2C(=O)N(C)c2cccnc21 ... 6.00 to 7.00
CCN1c2ncc(CCOc3ccc(CC(C)C(=O)O)c4ccccc34)cc2C(=O)N(C)c2ccc(F)nc21 (stereo not drawn) ... 6.00 to 7.00
CCN1c2ncc(CCOc3ccc(/C=C/C(=O)O)c4ccccc34)cc2C(=O)N(C)c2cccnc21 ... 6.00 to 7.00
CCN1c2ncc(CCOc3ccc(CC(=O)NN)c4ccccc34)cc2C(=O)N(C)c2cccnc21 ... > 7.00

Query block: Query (molecule): CCN1c2ncc(CCOc3ccc(C(=O)O)c4c3CCCC4)cc2C(=O)N(C)c2ccc(F)nc21 ; field requested: pIC50
Result block: 6.00 to 7.00

Query block: What value of pIC50 has been recorded for this entry: CCN1c2ncc(CCOc3ccc(C(=O)O)c4c3CCN(S(C)(=O)=O)C4)cc2C(=O)N(C)c2cccnc21
Result block: > 7.00

Query block: What value of pIC50 has been recorded for this entry: CCN1c2ncc(CCOc3ccc(CCC(=O)O)c4ccccc34)cc2C(=O)Nc2c(C)cc(F)nc21
Result block: 6.00 to 7.00

Query block: Which pIC50 value belongs to CCN1c2ncc(CCOc3ccc(C(=O)O)c4ccccc34)cc2C(=O)Nc2c(C)cc(F)nc21 ?
Result block: 6.00 to 7.00

Query block: For the molecule shown here, CCN1c2ncc(CCOc3ccc(C(=O)O)c4c3CCN(C(C)=O)C4)cc2C(=O)N(C)c2cccnc21 , give the reported pIC50.
Result block: 6.00 to 7.00

Query block: Given CCN1c2ncc(CCOc3ccc4cc(C(=O)NN)ccc4c3)cc2C(=O)N(C)c2cccnc21 , state its recorded pIC50.
Result block: 6.00 to 7.00
